- testedOn: T1, SNTG1, Q9NSN8
- T1 sequence (Q9NSN8 52-150, limits assumed, looked up): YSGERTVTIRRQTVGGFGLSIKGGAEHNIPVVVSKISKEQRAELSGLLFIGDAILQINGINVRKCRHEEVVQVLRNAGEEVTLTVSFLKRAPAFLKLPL
- runDescription: holdup assay
- Parameters: key: below the threshold = too weak to quantify, mostly under pKd 3.1 to 4
- experimentalSetup: plain residues with an end cap or a label only (N-terminal biotin on a linker: ado-ado)
measuredParameter: pKd

binder="LAHVKHKEQI [AQP3, Q92482]" reportedresult="below the threshold"
binder="GEDRSPPTAL [MKNK1, Q9BUB5]" reportedresult="below the threshold"
binder="IDESKKEWLI [CNTNAP2, Q9UHC6]" reportedresult="below the threshold"
